binders and their reported Kd
Biological target: T1, AAV2 (adeno-associated virus 2, UniProt P03135 1-735)
T1 construct: also called adeno-associated virus serotype 2
T1 sequence (P03135 whole entry): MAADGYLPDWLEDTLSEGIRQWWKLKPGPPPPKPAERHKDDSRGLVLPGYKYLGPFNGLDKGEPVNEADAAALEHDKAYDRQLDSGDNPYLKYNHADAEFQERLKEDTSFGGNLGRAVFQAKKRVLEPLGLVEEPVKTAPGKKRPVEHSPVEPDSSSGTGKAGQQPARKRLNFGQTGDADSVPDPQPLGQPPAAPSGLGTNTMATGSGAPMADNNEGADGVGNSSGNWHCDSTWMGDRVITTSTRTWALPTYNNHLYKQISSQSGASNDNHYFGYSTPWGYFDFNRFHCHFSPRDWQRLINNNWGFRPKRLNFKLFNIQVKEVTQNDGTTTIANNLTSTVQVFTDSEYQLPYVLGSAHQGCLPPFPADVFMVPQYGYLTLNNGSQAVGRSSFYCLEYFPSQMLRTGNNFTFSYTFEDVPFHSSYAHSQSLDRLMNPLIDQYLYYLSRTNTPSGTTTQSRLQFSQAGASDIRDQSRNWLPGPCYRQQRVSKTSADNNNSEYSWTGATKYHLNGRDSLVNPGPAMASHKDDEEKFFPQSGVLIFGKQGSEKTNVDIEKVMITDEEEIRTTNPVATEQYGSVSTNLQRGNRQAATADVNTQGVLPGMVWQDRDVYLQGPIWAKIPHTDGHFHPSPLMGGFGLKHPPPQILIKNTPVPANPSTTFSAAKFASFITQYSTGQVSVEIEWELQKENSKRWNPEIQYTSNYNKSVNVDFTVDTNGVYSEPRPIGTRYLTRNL
Assay: SPR, AAV amine-coupled to CM5 chip;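 also: nanobodies flowed as analyte at seven concentrations spanning 1–100 nM over immobilized AAV (500–800 RU), kinetic constants derived by fitting the binding curves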
endpointName: Kd

binder="A4-067 (VHH) VHH: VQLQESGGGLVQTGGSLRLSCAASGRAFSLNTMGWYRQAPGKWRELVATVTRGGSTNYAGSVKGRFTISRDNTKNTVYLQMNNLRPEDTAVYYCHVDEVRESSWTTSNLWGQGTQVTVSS" observed="0.016 µM"
binder="A4-051 (VHH) VHH: VQLQESGGGLVQPGGSLRLSCAASGSSFVINTMGWYRRAPGKQRELVAAVTRGGSTNYADSVKGRFTISRDNAKNTVYLQMNSLRPEDTAVYYCHVDEVRQSSWTTSNLWGQGTQVTVSS" observed="0.907 µM"
binder="A4-093 (VHH) VHH: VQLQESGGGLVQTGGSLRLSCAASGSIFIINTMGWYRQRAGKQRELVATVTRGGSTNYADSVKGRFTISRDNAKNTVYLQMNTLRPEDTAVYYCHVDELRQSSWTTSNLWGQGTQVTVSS" observed="0.046 µM"
binder="A4-054 (VHH) VHH: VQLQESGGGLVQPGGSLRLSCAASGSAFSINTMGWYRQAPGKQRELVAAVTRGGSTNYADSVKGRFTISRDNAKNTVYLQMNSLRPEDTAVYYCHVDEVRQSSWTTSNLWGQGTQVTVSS" observed="1.06 µM"

The reported numbers originate from patent US20260193326A1.
